Measured self-cleavage values are reported for all entries that follow.
B1: LINE1-full (parent)
chain: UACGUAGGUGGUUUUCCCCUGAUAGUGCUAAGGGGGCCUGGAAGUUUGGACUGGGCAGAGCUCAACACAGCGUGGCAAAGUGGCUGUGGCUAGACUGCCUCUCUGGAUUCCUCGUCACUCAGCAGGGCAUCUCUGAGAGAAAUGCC

variants of: B1; assay: self-cleavage, relative activity (ratio to wild type); higher = more cleavage; in vitro, sequencing; the parent is a self-cleaving ribozyme
Just the number.

Some solved cases for reference:
   mutant_code       endpoint  assay_result
0    U9A C123U  self-cleavage          1.11
1    G49A A69G  self-cleavage          0.36
2    G4C A141G  self-cleavage           0.5
3   G33U U143C  self-cleavage          0.61
4    U39A U81A  self-cleavage          2.08

Continue with the next variant.
Given item G36A U39A , the value recorded as its self-cleavage is 1.3
